- Measured Target: T1, recombinant human IGF-II (Insulin-like Growth Factor II) (human, UniProt P01344 25-91, biotinylated (Biotinyl-IGF-II, GroPep) where immobilised in SPR, site not stated; not biotinylated in ITC and as SPR analyte)
- T1 construct: also called IGF2; IGF-2
- T1 sequence (P01344 25-91 limits assumed): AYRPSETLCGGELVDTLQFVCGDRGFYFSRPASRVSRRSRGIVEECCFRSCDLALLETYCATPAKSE
- Test Method Notes: SPR, IGF-II immobilised, kinetic fit
- Description: Duplicate analyte injections were performed at concentrations of 4096, 2048, 1024, 512, 256, 128, 64, 32, 16 and 8 nM. Kinetic analysis by Surface Plasmon Resonance (SPR) was conducted on a BIAcore 3000 biosensor (BIAcore, Uppsala, Sweden) at 25° C. in HBS-EP (10 mM HEPES, pH 7.4, 150 mM NaCl, 3 mM EDTA, 0.005% surfactant P20) at a flow rate of 40 μl/min. […]
Form field: kon (one value per entry).
Provide only the numeric value, understood in M⁻¹ s⁻¹.

Q) Find the recorded kon belonging to IGF2R domain 11 E1544A (amino acids 1511-1650, C-terminal His6 tag, from Pichia pastoris) (receptor) NEHDDCQVTNPSTGHLFDLSSLSGRAGFTAAYSAKGLVYMSICGENENCPPGVGACFGQTRISVGKANKRLRYVDQVLQLVYKDGSPCPSKSGLSYKSVISFVCRPEAGPTNRPMLISLDKQTCTLFFSWHTPLACEQATHHHHHH and report it.
A) 934000

Q) Param item: IGF2R domain 11 E1544K (amino acids 1511-1650, C-terminal His6 tag, from Pichia pastoris) (receptor, also called enhanced mutant) NEHDDCQVTNPSTGHLFDLSSLSGRAGFTAAYSKKGLVYMSICGENENCPPGVGACFGQTRISVGKANKRLRYVDQVLQLVYKDGSPCPSKSGLSYKSVISFVCRPEAGPTNRPMLISLDKQTCTLFFSWHTPLACEQATHHHHHH
A) 1.52e+06

Q) Param item: wild type IGF2R domain 11 (amino acids 1511-1650) with C-terminal His6 tag, from Pichia pastoris (receptor, also called WT; wild type domain 11) NEHDDCQVTNPSTGHLFDLSSLSGRAGFTAAYSEKGLVYMSICGENENCPPGVGACFGQTRISVGKANKRLRYVDQVLQLVYKDGSPCPSKSGLSYKSVISFVCRPEAGPTNRPMLISLDKQTCTLFFSWHTPLACEQATHHHHHH
A) 525000

Q) Param item: IGF2R domain 11 E1544V (amino acids 1511-1650, C-terminal His6 tag, from Pichia pastoris) (receptor) NEHDDCQVTNPSTGHLFDLSSLSGRAGFTAAYSVKGLVYMSICGENENCPPGVGACFGQTRISVGKANKRLRYVDQVLQLVYKDGSPCPSKSGLSYKSVISFVCRPEAGPTNRPMLISLDKQTCTLFFSWHTPLACEQATHHHHHH
A) 837000
